All values here come from ChEMBL document CHEMBL3885881.

# Organism: Rattus norvegicus
# assay procedure: DrugMatrix - Regimen: Daily Repeat
# Type: toxicity, organism-based, Sprague-Dawley
# Parameters: regimen Daily Repeat, gender Male, age 6-8 weeks
# setup conditions: in vivo, po, 0 mg/kg, 120 h, tissue Blood, route oral GAVAGE, dose level Control, time 5 day, […]
The compounds listed here are annotated with their ABSOLUTE EOSINOPHIL.
Give just the numeric value; CELLS/uL need not be written.

Here's what some known entries look like.
# compound, ABSOLUTE EOSINOPHIL / CELLS/uL
data = [
    ("CC(=O)Nc1cccc(O)c1", 58.67),
    ("Cc1cccc(Nc2ccncc2S(=O)(=O)NC(=O)NC(C)C)c1 [TORSEMIDE]", 0),
    ("O=C(O)Cc1ccccc1Nc1c(Cl)cccc1Cl", 0),
    ("CC1=C(CC(=O)O)c2cc(F)ccc2/C1=C\\c1ccc([S+](C)[O-])cc1 (stereo unspecified)", 0),
    ("C[C@H]1O[C@@H](O[C@H]2[C@@H](O)C[C@H](O[C@H]3[C@@H](O)C[C@H](O[C@H]4CC[C@@]5(C)[C@H](CC[C@@H]6[C@@H]5CC[C@]5(C)[C@@H](C7=CC(=O)OC7)CC[C@]65O)C4)O[C@@H]3C)O[C@@H]2C)C[C@H](O)[C@@H]1O", 20.67),
    ("CCOC(=O)C1=C(C)NC(C)=C(C(=O)OC)C1c1cccc([N+](=O)[O-])c1 (stereo unspecified)", 0),
    ("CCCCCCCCc1ccc(O)cc1", 64.33),
    ("C[C@]12CC[C@@H]3c4ccc(O)cc4CC[C@H]3[C@@H]1CC[C@@H]2O", 0),
    ("COCCOC(=O)C1=C(C)NC(C)=C(C(=O)OC(C)C)C1c1cccc([N+](=O)[O-])c1 (stereo unspecified)", 0),
    ("COc1ccc2[nH]c([S+]([O-])Cc3ncc(C)c(OC)c3C)nc2c1 (stereo unspecified)", 0),
]

Now for the compound whose ABSOLUTE EOSINOPHIL we want.
ABSOLUTE EOSINOPHIL lookup needed for CC(C)Cc1ccc(C(C)C(=O)O)cc1 (stereo unspecified) , thanks.
0

----------
Attribute: ABSOLUTE EOSINOPHIL
# Organism: Rattus norvegicus
# assay procedure: DrugMatrix - Regimen: Daily Repeat
# Assay type: toxicity, organism-based, Sprague-Dawley
# Set-up: regimen Daily Repeat, gender Male, age 6-8 weeks
# setup conditions: in vivo, iv, 0 mg/kg, 120 h, tissue Blood, dose level Control, time 5 day, vehicle 100 % SALINE
# output: bare number, implied unit CELLS/uL

# molecule, ABSOLUTE EOSINOPHIL (CELLS/uL)
rows = [
    ("COc1cccc2c1C(=O)c1c(O)c3c(c(O)c1C2=O)C[C@@](O)(C(=O)CO)C[C@@H]3O[C@H]1C[C@H](N)[C@H](O)[C@H](C)O1", 53.33),
    ("CCC1=C[C@@H]2CN(C1)Cc1c([nH]c3ccccc13)[C@@](C(=O)OC)(c1cc3c(cc1OC)N(C)[C@H]1[C@@](O)(C(=O)OC)[C@H](OC(C)=O)[C@]4(CC)C=CCN5CC[C@]31[C@@H]54)C2", 48.83),
]

Any idea what ABSOLUTE EOSINOPHIL was measured for `CC[C@]1(O)C[C@@H]2CN(CCc3c([nH]c4ccccc34)[C@@](C(=O)OC)(c3cc4c(cc3OC)N(C)[C@H]3[C@@](O)(C(=O)OC)[C@H](OC(C)=O)[C@]5(CC)C=CCN6CC[C@]43[C@@H]65)C2)C1` ?
17

What does the data say about its ABSOLUTE EOSINOPHIL? Entry: `CCc1c2c(nc3ccc(OC(=O)N4CCC(N5CCCCC5)CC4)cc13)-c1cc3c(c(=O)n1C2)COC(=O)[C@]3(O)CC`
16.17

What value of measured ABSOLUTE EOSINOPHIL is listed for `CC(=O)N[C@@H]1[C@H](Oc2c3cc4cc2Oc2ccc(cc2Cl)[C@@H](O[C@@H]2O[C@@H](CO)[C@@H](O)[C@H](O)[C@@H]2NC(C)=O)[C@@H]2NC(=O)[C@H](NC(=O)[C@@H]4NC(=O)[C@H]4NC(=O)[C@@H](Cc5ccc(c(Cl)c5)O3)NC(=O)[C@H](N)c3ccc(O)c(c3)Oc3cc(O)cc4c3)c3ccc(O)c(c3)-c3c(O[C@H]4O[C@H](CO)[C@@H](O)[C@@H](O)[C@@H]4O)cc(O)cc3[C@@H](C(=O)O)NC2=O)O[C@@H](CO)[C@@H](O)[C@@H]1O` ?
27.5

Quick one: ABSOLUTE EOSINOPHIL of COc1cccc2c1C(=O)c1c(O)c3c(c(O)c1C2=O)C[C@@](O)(C(=O)CO)C[C@@H]3O[C@H]1C[C@H](N)[C@@H](O)[C@H](C)O1 [EPIRUBICIN] ?
16.17

----------
# Organism: Rattus norvegicus
# assay procedure: DrugMatrix - Regimen: Daily Repeat
# Format: toxicity, organism-based, Sprague-Dawley
# Parameters: regimen Daily Repeat, gender Male, age 6-8 weeks
# setup conditions: in vivo, po, 900 mg/kg, 72 h, tissue Blood, route oral GAVAGE, dose level High, time 3 day, […]
readout kind: ABSOLUTE LYMPHOCYTE
Please format your answer as a value with the unit trailing.

Entry `Clc1ccc(Cl)cc1` has what ABSOLUTE LYMPHOCYTE?
9740 cells/µL

----------
Parameter: CHOLESTEROL. Scope: all listed entries.
# Organism: Rattus norvegicus
# assay procedure: DrugMatrix - Regimen: Daily Repeat
# Type: toxicity, organism-based, Sprague-Dawley
# Parameters: regimen Daily Repeat, gender Male, age 6-8 weeks
# setup conditions: in vivo, po, 0 mg/kg, 72 h, tissue Plasma, route oral GAVAGE, dose level Control, time 3 day, vehicle .5 % CMC
A number alone suffices; assume mg/dL.

Examples with their reported CHOLESTEROL follow.
# compound, readout kind, observed
measured = [
    ("CC[C@@H](CO)NCCN[C@@H](CC)CO", "CHOLESTEROL", 78.17),
    ("C#C[C@]1(O)CC[C@H]2[C@@H]3CCc4cc(OC)ccc4[C@H]3CC[C@@]21C", "CHOLESTEROL", 71.17),
]

Which CHOLESTEROL is listed for `Cc1onc(-c2ccccc2)c1-c1ccc(S(N)(=O)=O)cc1` ?
71

----------
# Species on record: Rattus norvegicus
# assay procedure: DrugMatrix - Regimen: Daily Repeat
# Assay type: toxicity, organism-based, Sprague-Dawley
# Design: regimen Daily Repeat, gender Male, age 6-8 weeks
# setup conditions: in vivo, po, 0 mg/kg, 72 h, tissue Blood, route oral GAVAGE, dose level Control, time 3 day, vehicle .5 % CMC
readout kind: ABSOLUTE SEGMENTED NEUTROPHIL (CELLS/uL)
A number alone suffices; assume CELLS/uL.

The cases that follow already have their ABSOLUTE SEGMENTED NEUTROPHIL on record.
# compound, readout kind, observed
records = [
    ("CO[C@H]1/C=C/O[C@@]2(C)Oc3c(C)c(O)c4c(c3C2=O)C2=NC3(CCN(CC(C)C)CC3)NC2=C(NC(=O)/C(C)=C\\C=C\\[C@H](C)[C@H](O)[C@@H](C)[C@@H](O)[C@@H](C)[C@H](OC(C)=O)[C@@H]1C)C4=O [RIFABUTIN]", "ABSOLUTE SEGMENTED NEUTROPHIL", 970),
    ("Clc1ccc2c(c1)C(N1CCNCC1)=Nc1ccccc1O2 [AMOXAPINE]", "ABSOLUTE SEGMENTED NEUTROPHIL", 1932.67),
    ("CN1C(=O)COc2c(C(=O)NC3CN4CCC3CC4)cc(Cl)cc21 (centres undefined) [AZASETRON]", "ABSOLUTE SEGMENTED NEUTROPHIL", 1443),
    ("CNC(=C[N+](=O)[O-])NCCSCc1ccc(CN(C)C)o1 [RANITIDINE]", "ABSOLUTE SEGMENTED NEUTROPHIL", 970),
    ("C[C@]1(Cn2ccnn2)[C@H](C(=O)O)N2C(=O)C[C@H]2S1(=O)=O [TAZOBACTAM]", "ABSOLUTE SEGMENTED NEUTROPHIL", 1490.83),
]

Would you kindly share the measured ABSOLUTE SEGMENTED NEUTROPHIL for OC(CCN1CCCCC1)(c1ccccc1)C1CCCCC1 (centres undefined) [TRIHEXYPHENIDYL] ?
1401

Tell me the measured ABSOLUTE SEGMENTED NEUTROPHIL of C#C[C@]1(O)CC[C@H]2[C@@H]3CCc4cc(OC)ccc4[C@H]3CC[C@@]21C [MESTRANOL] , please.
970

Need ABSOLUTE SEGMENTED NEUTROPHIL of C[C@](O)(CS(=O)(=O)c1ccc(F)cc1)C(=O)Nc1ccc(C#N)c(C(F)(F)F)c1 [(R)-BICALUTAMIDE] , thanks.
1121.33

Quick one: ABSOLUTE SEGMENTED NEUTROPHIL for CC(C)[C@H]1CC[C@H](C(=O)N[C@H](Cc2ccccc2)C(=O)O)CC1 [NATEGLINIDE] ?
722.33
